The reader will find reported EC50 values listed item by item below.
molecular target: T1, human A-beta protein, fibrillar A-beta(1-40) coated for the ELISA (human); assay: ELISA, antibody on coated fibrillar A-beta(1-40)
T1 construct: also called Aβ1-40 fibers; fibrillar Aβ
T1 sequence (peptide, as listed by the source): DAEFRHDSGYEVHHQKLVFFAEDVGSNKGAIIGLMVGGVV
Output spec: scalar in pM, unitless text.

Examples with answers:
binder	EC50 [pM]
mAb 675 (antibody, V domains shown, glycosylation site in heavy chain CDR2 (NAT); Fab glycosylation (CE-SDS) 100 %, Variant of gantenerumab: heavy chain S53T (Kabat) and shortened heavy chain CDR3, wild-type light chain; Only variable domains are tied to the name; also called 142; gantenerumab VH NAT variant with wild-type light chain) VH: QVELVESGGGLVQPGGSLRLSCAASGFTFSSYAMSWVRQAPGKGLEWVSAINATGTRTYYADSVKGRFTISRDNSKNTLYLQMNSLRAEDTAVYYCARGKGSSGYVRYFDVWGQGTLVTVSS VL: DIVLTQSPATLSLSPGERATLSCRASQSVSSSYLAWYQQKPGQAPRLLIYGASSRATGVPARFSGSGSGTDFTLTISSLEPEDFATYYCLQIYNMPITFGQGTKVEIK	200
mAb 663 (antibody, V domains shown, no Fab glycosylation (CE-SDS 0 %), Variant of gantenerumab: heavy chain N52Q (Kabat) and shortened heavy chain CDR3, wild-type light chain; also called 143; gantenerumab VH QAS variant with wild-type light chain) VH: QVELVESGGGLVQPGGSLRLSCAASGFTFSSYAMSWVRQAPGKGLEWVSAIQASGTRTYYADSVKGRFTISRDNSKNTLYLQMNSLRAEDTAVYYCARGKGSSGYVRYFDVWGQGTLVTVSS VL: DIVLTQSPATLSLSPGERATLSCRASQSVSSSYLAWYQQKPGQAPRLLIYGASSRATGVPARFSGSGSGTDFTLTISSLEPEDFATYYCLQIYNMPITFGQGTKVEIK	200
mAb 651 (antibody, V domains shown, glycosylation site in heavy chain CDR2 (NAT); Fab glycosylation (CE-SDS) 100 %, Variant of gantenerumab: heavy chain S53T, shortened heavy chain CDR3, light chain M95H (Kabat); also called 144) VH: QVELVESGGGLVQPGGSLRLSCAASGFTFSSYAMSWVRQAPGKGLEWVSAINATGTRTYYADSVKGRFTISRDNSKNTLYLQMNSLRAEDTAVYYCARGKGSSGYVRYFDVWGQGTLVTVSS VL: DIVLTQSPATLSLSPGERATLSCRASQSVSSSYLAWYQQKPGQAPRLLIYGASSRATGVPARFSGSGSGTDFTLTISSLEPEDFATYYCLQIYNHPITFGQGTKVEIK	4000
gantenerumab (antibody, human IgG1, V domains shown, glycosylation site in heavy chain CDR2 (NAS); Fab glycosylation (CE-SDS) 30-80 %, kappa light chain; also called parent antibody gantenerumab; wt: NAS) VH: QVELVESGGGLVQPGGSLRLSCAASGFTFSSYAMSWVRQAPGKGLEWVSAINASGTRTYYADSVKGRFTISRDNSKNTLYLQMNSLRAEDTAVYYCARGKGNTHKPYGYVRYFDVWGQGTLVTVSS VL: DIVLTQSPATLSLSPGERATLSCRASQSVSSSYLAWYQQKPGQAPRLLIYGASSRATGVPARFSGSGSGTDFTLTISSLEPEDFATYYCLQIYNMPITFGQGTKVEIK	200

Read the next record carefully.
I have this binder here, mAb 638 (antibody, V domains shown, no Fab glycosylation (CE-SDS 0 %), Variant of gantenerumab: heavy chain N52Q, shortened heavy chain CDR3, light chain M95H (Kabat)) VH: QVELVESGGGLVQPGGSLRLSCAASGFTFSSYAMSWVRQAPGKGLEWVSAIQASGTRTYYADSVKGRFTISRDNSKNTLYLQMNSLRAEDTAVYYCARGKGSSGYVRYFDVWGQGTLVTVSS VL: DIVLTQSPATLSLSPGERATLSCRASQSVSSSYLAWYQQKPGQAPRLLIYGASSRATGVPARFSGSGSGTDFTLTISSLEPEDFATYYCLQIYNHPITFGQGTKVEIK , and I need its recorded EC50. 200
